Assignment: determine reported Activity for the given compounds.
Target: UniProt:P02768
Sequence (P02768 whole entry): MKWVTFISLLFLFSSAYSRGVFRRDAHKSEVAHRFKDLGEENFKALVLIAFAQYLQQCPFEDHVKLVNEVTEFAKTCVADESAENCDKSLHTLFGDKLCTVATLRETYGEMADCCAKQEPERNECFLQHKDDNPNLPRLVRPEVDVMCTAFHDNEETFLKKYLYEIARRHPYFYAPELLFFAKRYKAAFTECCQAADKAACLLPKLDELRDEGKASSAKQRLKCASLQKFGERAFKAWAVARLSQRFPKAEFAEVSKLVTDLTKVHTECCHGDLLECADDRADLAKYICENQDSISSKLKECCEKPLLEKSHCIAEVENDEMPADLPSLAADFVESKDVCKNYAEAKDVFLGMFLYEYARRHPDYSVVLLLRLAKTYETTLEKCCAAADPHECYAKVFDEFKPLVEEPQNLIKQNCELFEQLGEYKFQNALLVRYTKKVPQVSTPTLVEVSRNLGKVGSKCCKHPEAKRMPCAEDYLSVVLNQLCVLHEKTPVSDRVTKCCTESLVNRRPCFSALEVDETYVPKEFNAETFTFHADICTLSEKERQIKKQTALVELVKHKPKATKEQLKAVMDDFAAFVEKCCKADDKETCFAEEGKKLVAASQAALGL
Assay: Binding affinity to human serum albumin
Type: ADME
Conditions: isolated protein
# value in %; strip the unit string

Input `CC(C)CCn1c(=O)c(C2=NS(=O)(=O)c3ccsc3N2)c(O)c2ccccc21` . Output Activity: 99.5

Input `CC(C)CCn1c(=O)c(C2=NS(=O)(=O)c3ncccc3N2)c(O)c2ccccc21` . Output Activity: 98.7

Input `NC(=O)COc1ccc2c(c1)S(=O)(=O)N=C(c1c(O)c3cccnc3n(CCC3CC3)c1=O)N2` . Output Activity: 97.8

Input `CC(C)CCn1c(=O)c(C2=NS(=O)(=O)c3cc(OCC(N)=O)ccc3N2)c(O)c2ccccc21` . Output Activity: 99.2

Input `CCN1CCC2=C(C1)S(=O)(=O)N=C(c1c(O)c3ccccc3n(CCC(C)C)c1=O)N2` . Output Activity: 97.9

Input `CC(C)CCn1c(=O)c(C2=NS(=O)(=O)c3cc(O)ccc3N2)c(O)c2ccsc21` . Output Activity: 99.1

Input `CC(C)CCn1c(=O)c(C2=NS(=O)(=O)c3cc(O)ccc3N2)c(O)c2sccc21` . Output Activity: 99

Input `Cc1nn(C)c2c1S(=O)(=O)N=C(c1c(O)c3ccccc3n(CCC(C)C)c1=O)N2` . Output Activity: 98.5

Input `CC(C)CCn1c(=O)c(C2=NS(=O)(=O)c3cc(O[C@H](C)C(N)=O)ccc3N2)c(O)c2sccc21` . Output Activity: 98.3

Input `CNC(=O)N1CCC2=C(C1)S(=O)(=O)N=C(c1c(O)c3ccccc3n(CCC(C)C)c1=O)N2` . Output Activity: 98.2

Input `CC(C)CCn1c(=O)c(C2=NS(=O)(=O)c3ccccc3N2)c(O)c2cnn(C)c21` . Output Activity: 97

Input `CC(C)CCn1c(=O)c(C2=NS(=O)(=O)C3=C(CCN(CCc4nnn[nH]4)C3)N2)c(O)c2ccccc21` . Output Activity: 98.7

Input `CC(C)CCn1c(=O)c(C2=NS(=O)(=O)c3cc(O[C@H](C)C(N)=O)ccc3N2)c(O)c2cccnc21` . Output Activity: 98.3
